This collection of values is drawn from the supplement of paper PMC6555819.

System: THRa:RXRa (NR concentration 90 nM, RXRa partner concentration 90 nM)
Test: PBM binding z-score (relative to random genomic background probes); higher = stronger binding; sequences stand for … in GC…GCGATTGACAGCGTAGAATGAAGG
assayEndpoint: PBM binding z-score
Reply briefly: the number, and no unit.

Input line: # return recorded PBM binding z-score for entry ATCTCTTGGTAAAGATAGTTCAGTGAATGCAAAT
Output line: 0.575

Input line: # return recorded PBM binding z-score for entry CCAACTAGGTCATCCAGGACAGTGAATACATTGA
Output line: 3.79

Input line: # return recorded PBM binding z-score for entry CGCCCAAGGTCATAGGAGGTCAGTGAAGACAGAT
Output line: 5.34
